study-system: Leukotriene, Cysteinyl CysLT1 (Cavia porcellus, UniProt Q2NNR5)
Construct: from tissue; host or cells: guinea pig lung membrane
Sequence (Q2NNR5 1-340): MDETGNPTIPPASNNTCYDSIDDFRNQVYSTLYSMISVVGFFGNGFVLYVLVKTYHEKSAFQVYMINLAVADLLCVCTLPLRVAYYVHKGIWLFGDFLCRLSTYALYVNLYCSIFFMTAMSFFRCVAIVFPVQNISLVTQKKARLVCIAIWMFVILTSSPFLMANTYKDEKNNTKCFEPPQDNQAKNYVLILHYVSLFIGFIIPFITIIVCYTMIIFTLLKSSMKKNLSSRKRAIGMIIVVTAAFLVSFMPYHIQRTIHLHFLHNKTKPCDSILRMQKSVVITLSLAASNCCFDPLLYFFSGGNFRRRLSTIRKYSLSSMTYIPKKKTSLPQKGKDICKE
assay: receptor radio-ligand-binding assay (Tritiated LTD4 as the ligand), Guinea pig lung membrane
condition-set: 0.5 h; 3 nM test compound; 0.2 nM 3H LTD4, Guinea pig lung membrane; read-out: % Inhbition (in nM) 3
The entries below come with measured inhibition at 0.003 µM values attached.
Returns: string containing the numeric result and its unit.

Past entries and their recorded results:
{"compound": "COc1cc(C(=O)O)c(CCC2(c3cccc(/C=C/c4ccc5ccc(Cl)cc5n4)c3)OCCO2)c(OC)c1OC", "inhibition at 0.003 µM": "68%"}
{"compound": "COc1ccc(CCC2(c3cccc(/C=C/c4ccc5ccc(Cl)cc5n4)c3)OCCO2)c(-c2nnn[nH]2)c1", "inhibition at 0.003 µM": "77%"}
{"compound": "O=C(O)c1cc(Cl)ccc1CCC1(c2cccc(/C=C/c3ccc4ccc(Cl)cc4n3)c2)OCCO1", "inhibition at 0.003 µM": "84%"}
{"compound": "CCN(CC)C(=O)c1ccccc1CCC(NC(=O)c1ccccc1C(=O)O)c1cccc(/C=C/c2ccc3ccc(Cl)cc3n2)c1 (centres unmarked)", "inhibition at 0.003 µM": "51%"}
{"compound": "COc1ccc(C=CC2(c3cccc(/C=C/c4ccc5ccc(Cl)cc5n4)c3)OCCO2)c(C(=O)O)c1", "inhibition at 0.003 µM": "78%"}
{"compound": "COc1ccc(CCC2(c3cccc(/C=C/c4ccc5ccc(Cl)cc5n4)c3)OCCO2)c(C(=O)O)c1", "inhibition at 0.003 µM": "86%"}
{"compound": "CC1(C)COC(CCc2ccccc2C(=O)O)(c2cccc(/C=C/c3ccc4ccc(Cl)cc4n3)c2)OC1", "inhibition at 0.003 µM": "53%"}
{"compound": "O=C(O)c1ccccc1CCC1(c2cccc(/C=C/c3ccc4ccc(Cl)cc4n3)c2)OCCO1", "inhibition at 0.003 µM": "41%"}
{"compound": "O=C(N[C@@H](CCc1ccccc1C(=O)O)c1cccc(/C=C/c2ccc3ccc(Cl)cc3n2)c1)c1cccs1", "inhibition at 0.003 µM": "56%"}
{"compound": "O=C(O)c1ccccc1CCC1(c2cccc(/C=C/c3ccc4ccc(Cl)cc4n3)c2)OCCS1 (centres unmarked)", "inhibition at 0.003 µM": "74%"}

Pending compound:
Task: Consider the compound CCOC(CSc1ncccc1C(=O)O)c1cccc(/C=C/c2ccc3ccc(Cl)cc3n2)c1 (centres unmarked) and give its measured inhibition at 0.003 µM.
Result: 49%

---

study-system: Leukotriene, Cysteinyl CysLT1 (Cavia porcellus, UniProt Q2NNR5)
Construct: from tissue; host or cells: guinea pig lung membrane
Sequence (Q2NNR5 1-340): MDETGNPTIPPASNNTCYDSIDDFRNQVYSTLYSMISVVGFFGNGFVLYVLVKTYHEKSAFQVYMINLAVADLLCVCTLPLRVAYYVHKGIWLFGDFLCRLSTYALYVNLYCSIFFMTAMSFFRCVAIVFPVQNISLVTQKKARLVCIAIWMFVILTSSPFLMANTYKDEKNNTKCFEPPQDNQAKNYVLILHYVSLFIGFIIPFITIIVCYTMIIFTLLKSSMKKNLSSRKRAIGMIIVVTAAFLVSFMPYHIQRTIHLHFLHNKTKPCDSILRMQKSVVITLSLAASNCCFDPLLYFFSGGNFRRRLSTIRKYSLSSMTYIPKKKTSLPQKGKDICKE
assay: receptor radio-ligand-binding assay (Tritiated LTD4 as the ligand), Guinea pig lung membrane
condition-set: 0.5 h; 1 nM test compound; 0.2 nM 3H LTD4, Guinea pig lung membrane; read-out: % Inhbition (in nM) 1
experimental-endpoint: inhibition at 0.001 µM (%)
# unit: % | format: bare number

Completed entries (count: 2):
{"molecule": "O=C(O)c1ccccc1C(=O)NC(CCc1ccccc1C(=O)N1CCCC1)c1cccc(/C=C/c2ccc3ccc(Cl)cc3n2)c1 (stereo not drawn)", "experimental-endpoint": "inhibition at 0.001 µM", "measure-unit": "%", "readout-number": 40}
{"molecule": "O=C(O)c1ccccc1CCC1(c2cccc(/C=C/c3ccc4ccc(Cl)cc4n3)c2)OCCS1 (stereo not drawn)", "experimental-endpoint": "inhibition at 0.001 µM", "measure-unit": "%", "readout-number": 64}

Next, consider the following molecule.
Task: What measured inhibition at 0.001 µM goes with CCOC(COc1ccc(OC)cc1C(=O)O)c1cccc(C#Cc2ccc3ccc(Cl)cc3n2)c1 (stereo not drawn) ?
Result: 76
